Target: human ether-à-go-go-related gene (hERG) potassium channel (human, UniProt Q12809);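 note: peak tail current of the secondary pulse compared with the same well before compound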
Sequence (Q12809 whole entry, looked up): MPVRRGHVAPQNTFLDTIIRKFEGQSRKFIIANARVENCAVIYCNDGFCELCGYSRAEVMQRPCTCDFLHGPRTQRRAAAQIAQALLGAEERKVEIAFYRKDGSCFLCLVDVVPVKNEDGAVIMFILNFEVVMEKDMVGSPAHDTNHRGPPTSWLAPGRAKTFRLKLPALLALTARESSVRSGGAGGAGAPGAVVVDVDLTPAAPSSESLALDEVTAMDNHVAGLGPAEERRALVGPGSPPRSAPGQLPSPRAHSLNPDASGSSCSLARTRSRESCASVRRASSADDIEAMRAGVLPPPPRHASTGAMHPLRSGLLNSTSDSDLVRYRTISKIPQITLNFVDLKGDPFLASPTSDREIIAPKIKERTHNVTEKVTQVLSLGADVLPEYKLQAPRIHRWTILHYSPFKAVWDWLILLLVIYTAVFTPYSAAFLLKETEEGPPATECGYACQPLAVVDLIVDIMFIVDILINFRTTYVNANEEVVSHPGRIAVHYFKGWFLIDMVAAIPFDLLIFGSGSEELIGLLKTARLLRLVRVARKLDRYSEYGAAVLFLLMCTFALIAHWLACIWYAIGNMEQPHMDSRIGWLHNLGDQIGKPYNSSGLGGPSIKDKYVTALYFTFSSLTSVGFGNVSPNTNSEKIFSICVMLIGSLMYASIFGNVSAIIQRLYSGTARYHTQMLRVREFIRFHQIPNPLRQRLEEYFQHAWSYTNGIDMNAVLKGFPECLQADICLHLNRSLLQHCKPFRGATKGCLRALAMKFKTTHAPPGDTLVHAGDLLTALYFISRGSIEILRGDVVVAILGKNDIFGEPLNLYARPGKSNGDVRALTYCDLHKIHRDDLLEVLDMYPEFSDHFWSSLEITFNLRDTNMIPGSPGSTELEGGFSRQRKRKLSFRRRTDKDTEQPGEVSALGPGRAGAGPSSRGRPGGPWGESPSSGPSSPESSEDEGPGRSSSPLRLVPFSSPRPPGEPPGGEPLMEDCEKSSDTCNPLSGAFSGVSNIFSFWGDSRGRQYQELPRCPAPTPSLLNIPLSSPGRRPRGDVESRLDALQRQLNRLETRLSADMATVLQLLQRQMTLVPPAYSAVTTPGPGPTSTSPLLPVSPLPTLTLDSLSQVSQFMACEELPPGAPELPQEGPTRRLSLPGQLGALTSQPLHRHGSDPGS
Test: primary screen, population patch clamp on CHO cells stably expressing hERG; higher = less effect of the substance
Hit rate of the full screen: of about 310,000 compounds, about 14,000 (4.5%) showed an effect of 50% or more. Effects have a minus sign here. The full list was thinned out, with strong results kept by preference.
The entries below come with measured hERG current change (%, negative = inhibition) at 10uM values attached.
MEASURED PARAMETER: hERG current change (%, negative = inhibition) at 10uM (%)

> print(dat)
                                    compound                       experimental.target  unit.string  number
 1     CN(C)C(=O)CSc1nnc(NC(=O)CCc2ccccc2)s1  human ether-à-go-go-related gene (hERG) potassium channel (human, UniProt Q12809)            %   -5.24
 2  O=C(Nc1ccc(F)cc1)c1ccccc1S(=O)(=O)c1ccccc1[N+](=O)[O-]  human ether-à-go-go-related gene (hERG) potassium channel (human, UniProt Q12809)            %   -17.5
 3      O=C(Nc1ccccc1)Nc1nnc(Cc2ccc(F)cc2)s1  human ether-à-go-go-related gene (hERG) potassium channel (human, UniProt Q12809)            %    20.1
 4  COc1ccc(NC(=O)COC(=O)CCNS(=O)(=O)c2ccc(Cl)cc2)cc1  human ether-à-go-go-related gene (hERG) potassium channel (human, UniProt Q12809)            %   -23.2
 5             CCc1oc(C(=O)OC)cc1CSC(=N)N.Cl  human ether-à-go-go-related gene (hERG) potassium channel (human, UniProt Q12809)            %      12
 6  O=c1[nH]c(/C=C\c2cccs2)nc(O)c1[N+](=O)[O-]  human ether-à-go-go-related gene (hERG) potassium channel (human, UniProt Q12809)            %   -4.76
 7  CCCN1CCN(CC(O)COC(c2ccc(OC)cc2)c2ccc(OC)cc2)CC1.O=C(O)C(=O)O (stereo not shown)  human ether-à-go-go-related gene (hERG) potassium channel (human, UniProt Q12809)            %   -30.2
 8  Cc1ccc(NC(=O)CN(C)Cc2ccc(F)cc2)c([N+](=O)[O-])c1  human ether-à-go-go-related gene (hERG) potassium channel (human, UniProt Q12809)            %   -17.8
 9  N#Cc1c(NC(=O)CSc2ncccn2)oc(-c2ccccc2)c1-c1ccccc1  human ether-à-go-go-related gene (hERG) potassium channel (human, UniProt Q12809)            %    25.2
10            CC1(C)CC(=O)C=C(NCCN2CCNCC2)C1  human ether-à-go-go-related gene (hERG) potassium channel (human, UniProt Q12809)            %   -2.18
11  Cc1ccc(Cl)cc1N1CCN(CC(O)COC(C)C)CC1.Cl (stereo not shown)  human ether-à-go-go-related gene (hERG) potassium channel (human, UniProt Q12809)            %   -63.7
12  COc1ccc(NC(C)=[N+](C)CCNS(=O)(=O)c2ccc(Cl)cc2)cc1.[I-]  human ether-à-go-go-related gene (hERG) potassium channel (human, UniProt Q12809)            %   -70.2
13  COc1ccc(N2CCN(CCC(O)c3ccc4ccccc4c3)CC2)cc1 (stereo not shown)  human ether-à-go-go-related gene (hERG) potassium channel (human, UniProt Q12809)            %   -68.3
14  CCOC(=O)c1c(NC(=O)COC(=O)CCOc2ccccc2C)sc(C(=O)NC)c1C  human ether-à-go-go-related gene (hERG) potassium channel (human, UniProt Q12809)            %    20.1
15             CN(C)c1ccc(C(=S)N2CCCCCC2)cc1  human ether-à-go-go-related gene (hERG) potassium channel (human, UniProt Q12809)            %   -5.79
16             CC(C)CC(=O)Nc1ccccc1Oc1ccccc1  human ether-à-go-go-related gene (hERG) potassium channel (human, UniProt Q12809)            %   -2.96
17            O=S(=O)(c1cccs1)N1CCc2ccccc2C1  human ether-à-go-go-related gene (hERG) potassium channel (human, UniProt Q12809)            %   -5.63
18                    Cc1nc2cc(C(=O)O)ccc2s1  human ether-à-go-go-related gene (hERG) potassium channel (human, UniProt Q12809)            %    5.41
19  CCN1CCCC(OC(=O)C(c2ccccc2)c2ccccc2)C1.Cl (stereo not shown)  human ether-à-go-go-related gene (hERG) potassium channel (human, UniProt Q12809)            %   -66.1
20  O=c1[nH]nnc2c1sc1nc(N3CCOCC3)c3c(c12)CCCC3  human ether-à-go-go-related gene (hERG) potassium channel (human, UniProt Q12809)            %   -12.4
21        CCOc1ccc2c(c1)nc(NCCCO)n2Cc1ccccc1  human ether-à-go-go-related gene (hERG) potassium channel (human, UniProt Q12809)            %   -20.3
22  CC(=O)OCC(=O)NCCCOc1cccc(CN2CCCCC2)c1.Cl  human ether-à-go-go-related gene (hERG) potassium channel (human, UniProt Q12809)            %   -2.29

---

Biological target: human ether-à-go-go-related gene (hERG) potassium channel (human);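 note: peak tail current of the secondary pulse compared with the same well before compound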
Test: primary screen, population patch clamp on CHO cells stably expressing hERG; higher = less effect of the substance
Screen size: about 310,000 compounds; about 14,000 (4.5%) showed an effect of 50% or more. The effect is printed as a negative number. Shown is part of a subset that was picked to be rich in strong results.
MEASURED PARAMETER: hERG current change (%, negative = inhibition) at 10uM (%)

> print(dat)
                                    compound  number
 1  CN(CCOc1ccc(F)cc1)Cc1ccccc1.O=C(O)C(=O)O   -23.3
 2  CN(CCCCOc1ccc(F)cc1)Cc1ccccc1.O=C(O)C(=O)O   -54.7
 3                       Nc1cccc(-n2cccc2)c1    18.5
 4       CN(C)CCCN(CCCNC(=O)/C=N/O)Cc1ccccc1    1.31
 5               CN(CCCOc1ccccc1Br)Cc1ccccc1   -22.1
 6   COc1ccccc1CNc1nc2nc(C)c(Cl)c(=O)n2[nH]1   -2.39
 7   CN(CCCOc1ccccc1F)Cc1ccccc1.O=C(O)C(=O)O   -57.3
 8  COc1ccc2cc(-c3cc(C(=O)OCC(=O)NC4CCS(=O)(=O)C4)c4ccccc4n3)ccc2c1 (stereo not shown)    16.1
 9          CN(C)CCCCOc1ccccc1F.O=C(O)C(=O)O    14.4
10  COc1ccc(CNCc2c(O)c(Cl)cc3c(C)c(C)c(=O)oc23)c(OC)c1.Cl    -3.6

---

The entries below come with measured hERG current change (%, negative = inhibition) at 10uM values attached.
Target: human ether-à-go-go-related gene (hERG) potassium channel (human);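 note: peak tail current of the secondary pulse compared with the same well before compound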
Assay: primary screen, population patch clamp on CHO cells stably expressing hERG; higher = less effect of the substance
About 14,000 (4.5%) of roughly 310,000 compounds showed an effect of 50% or more. Effects have a minus sign here. The sample holds strong results, similar compounds and a random draw of the others, so the mix is not that of the screen.
MEASURED PARAMETER: hERG current change (%, negative = inhibition) at 10uM (%)

> print(dat)
                                    compound                       experimental.target  number
 1     Cc1cccc(NC(=O)CSc2nnc(-c3ccco3)o2)c1C  human ether-à-go-go-related gene (hERG) potassium channel (human)   -4.42
 2   O=C(ONC1=NCCCCC1)c1ccc([N+](=O)[O-])cc1  human ether-à-go-go-related gene (hERG) potassium channel (human)   -5.87
 3              O=C1CC(c2cc(-c3ccccc3)no2)C1  human ether-à-go-go-related gene (hERG) potassium channel (human)   -9.96
 4  CCC(C)n1c(SCC(=O)Nc2cc(C(C)(C)C)nn2-c2ccccc2)nc2ccccc2c1=O (centres unmarked)  human ether-à-go-go-related gene (hERG) potassium channel (human)    3.57
 5  Cc1ccc(S(=O)(=O)N2CCN(C(=O)c3ccco3)CC2)cc1  human ether-à-go-go-related gene (hERG) potassium channel (human)    1.15
 6  CCN(CC)c1ccc(N=Cc2c(O)n(-c3ccccc3C)c(=O)[nH]c2=O)cc1  human ether-à-go-go-related gene (hERG) potassium channel (human)   -29.2
 7   O=C(COC(=O)c1ccco1)NC(c1ccccc1)c1ccccc1  human ether-à-go-go-related gene (hERG) potassium channel (human)    3.56
 8        CC(=O)Nc1ccc(OCC(=O)NCc2ccccc2)cc1  human ether-à-go-go-related gene (hERG) potassium channel (human)      19
 9  Cc1cccc(NC(=O)CSc2nnc(CNC(=O)c3ccco3)n2C)c1C  human ether-à-go-go-related gene (hERG) potassium channel (human)   -17.3
10  Cc1cc(=O)oc2c(C(=O)/C=C\c3cccs3)c(O)ccc12  human ether-à-go-go-related gene (hERG) potassium channel (human)    11.1
11  Cc1cccc(NC(=O)CSc2nnc(-c3ccco3)c(-c3ccco3)n2)c1C  human ether-à-go-go-related gene (hERG) potassium channel (human)   -66.4
12  CCOC(=O)CNC(=O)Cn1cnc2sc(C)c(S(=O)(=O)N3CCOCC3)c2c1=O  human ether-à-go-go-related gene (hERG) potassium channel (human)    16.4
13  CCCCc1ccc(S(=O)(=O)N2CCN(C(=O)c3ccco3)CC2)cc1  human ether-à-go-go-related gene (hERG) potassium channel (human)   -66.5
14  CCCCc1ccc(NC(=S)N2CCN(C(=O)c3ccco3)CC2)cc1  human ether-à-go-go-related gene (hERG) potassium channel (human)   -75.3
15  CCOC(=O)c1nc(Nc2ccc(C(=O)OC)cc2)c2ccccc2n1  human ether-à-go-go-related gene (hERG) potassium channel (human)   0.323
16  Cc1cccc(C)c1NC(=O)CSc1nnc(-c2ccco2)c(-c2ccco2)n1  human ether-à-go-go-related gene (hERG) potassium channel (human)   -67.1
17  COC(=O)c1ccc(NC(=S)N2CCN(C(=O)c3ccco3)CC2)cc1  human ether-à-go-go-related gene (hERG) potassium channel (human)   -4.94
18  COCC(=O)N1CCC(Oc2ccc(C(=O)NC3Cc4ccccc4C3)cc2)CC1  human ether-à-go-go-related gene (hERG) potassium channel (human)   -3.57
19  Br.O=C(c1ccc(Br)cc1)c1sc(N2CCOCC2)nc1-c1ccccc1  human ether-à-go-go-related gene (hERG) potassium channel (human)   -1.44
20  Cc1ccccc1NC(=O)CSc1nnc(-c2ccco2)c(-c2ccco2)n1  human ether-à-go-go-related gene (hERG) potassium channel (human)   -53.9
